Protocol: chemical recovery by SPE of plasma after PDMS sampling; higher = better extraction
Run Conditions: pooled human plasma; extraction method: HLB SPE of plasma after PES; equilibration time (d): 1
Classify by measured chemical recovery by SPE of plasma: True if it is equal to or exceeds 40%, False if it is smaller.

Worked set:
Entry CCOC(=O)[C@H](CCc1ccccc1)N[C@@H](C)C(=O)N1CCC[C@H]1C(=O)O : is its chemical recovery by SPE of plasma no less than 40%? True

Entry Clc1cc(Cl)c(-c2c(Cl)ccc(Cl)c2Cl)cc1Cl : is its chemical recovery by SPE of plasma no less than 40%? False

Entry CC12CC3CC(C)(C1)CC(N)(C3)C2 [Memantine] : is its chemical recovery by SPE of plasma no less than 40%? False

Entry O=C(O)COCCN1CCN(C(c2ccccc2)c2ccc(Cl)cc2)CC1 (centres undefined) : is its chemical recovery by SPE of plasma no less than 40%? True

***
Entry Brc1ccc(Oc2ccc(Br)cc2Br)c(Br)c1 : is its chemical recovery by SPE of plasma no less than 40%? False

Entry Cc1cc(Cc2ccc(N)c(C)c2)ccc1N : is its chemical recovery by SPE of plasma no less than 40%? False

Entry C=CCOC(Cn1ccnc1)c1ccc(Cl)cc1Cl (centres undefined) : is its chemical recovery by SPE of plasma no less than 40%? False

----------
Protocol: chemical recovery from spiked human plasma; higher = better extraction
Run Conditions: pooled human plasma; extraction method: PES+SPE (3 d PDMS equilibration then HLB SPE)
Measurement Name: chemical recovery (%)
Write the value in % as a bare number.

See these solved cases before continuing.
Measured chemical recovery, COP(=O)(OC)O/C(C)=C/C(=O)N(C)C : 38.5

Measured chemical recovery, CSc1nnc(C(C)(C)C)c(=O)n1N : 49.7

Measured chemical recovery, c1ccc2cc(-c3cc4ccccc4s3)ccc2c1 : 59.8

Measured chemical recovery, Nc1c(Br)cc(Br)cc1CN[C@H]1CC[C@H](O)CC1 : 5.97

Measured chemical recovery, O=C(O)C(F)(F)C(F)(F)C(F)(F)F : 26.4

Measured chemical recovery, Cc1cc(O)cc(C)c1[S+](C)[O-] (stereo not given) [Methiocarb-sulfoxide-phenol] : 71.6

Measured chemical recovery, CN(C)CCOC(c1ccccc1)c1ccccc1 [Diphenhydramine] : 0.391

Measured chemical recovery, Clc1ccc2[nH]nnc2c1 : 44.7

Lab note: next compound to report on.
Measured chemical recovery, C[C@H](CCC(=O)O)[C@H]1CC[C@H]2[C@@H]3C(=O)C[C@@H]4C[C@H](O)CC[C@]4(C)[C@H]3CC[C@]12C : 51.1

----------
Protocol: chemical recovery into PDMS from spiked human plasma; higher = better extraction
Run Conditions: pooled human plasma; extraction method: PES with PDMS; equilibration time (d): 1
Measurement Name: chemical recovery into PDMS
Put your answer as a value accompanied by its unit after it.

Measured chemical recovery into PDMS, Cc1cccc(C)c1N(Cn1cccn1)C(=O)CCl : 40.1%

Measured chemical recovery into PDMS, CCCN(CCOc1c(Cl)cc(Cl)cc1Cl)C(=O)NC=O : 39.6%

Measured chemical recovery into PDMS, CC(C)(C)c1ccc(C(=O)CCCN2CCC(OC(c3ccccc3)c3ccccc3)CC2)cc1 : 0.444%

Measured chemical recovery into PDMS, COC(=O)N(C(=O)N1CO[C@@]2(C(=O)OC)Cc3cc(Cl)ccc3C2=N1)c1ccc(OC(F)(F)F)cc1 : 52.6%

Lab note: next compound to report on.
Measured chemical recovery into PDMS, N#Cc1nn(-c2c(Cl)cc(C(F)(F)F)cc2Cl)c(N)c1[S+]([O-])C(F)(F)F (stereo not given) : 25.5%
